The measured values listed here are drawn from ChEMBL document CHEMBL1139470.

Catalogue of IC50 values
# Protocol Notes: Inhibition of Saccharomyces cerevisiae FTase
Provide the reading as a plain figure in nM.

Take a look at these entries with their results.
Cc1ccc(CC(=O)Nc2ccc(NC(=O)/C=C/c3ccc(-c4ccc([N+](=O)[O-])cc4)o3)cc2C(=O)c2ccccc2)cc1; 35
NC(C(=O)Nc1ccc(NC(=O)/C=C/c2ccc(-c3ccc([N+](=O)[O-])cc3)o2)cc1C(=O)c1ccccc1)c1ccc(C(F)(F)F)cc1 (configuration not stated); 17

INPUT: Reported IC50 for O=C(/C=C/c1ccc(-c2ccc([N+](=O)[O-])cc2)o1)Nc1ccc(NC(=O)C(c2ccccc2)N2CCCCC2)c(C(=O)c2ccccc2)c1 (configuration not stated) : what is it?
OUTPUT: 455

INPUT: Moving on to the next compound: CSCC[C@H](N)C(=O)Nc1ccc(NC(=O)/C=C/c2ccc(-c3ccc([N+](=O)[O-])cc3)o2)cc1C(=O)c1ccccc1
OUTPUT: 1770

INPUT: Moving on to the next compound: O=C(/C=C/c1ccc(-c2ccc([N+](=O)[O-])cc2)o1)Nc1ccc(NC(=O)C(c2ccccc2)N2CCN(C3CCCCC3)CC2)c(C(=O)c2ccccc2)c1 (configuration not stated)
OUTPUT: 340

INPUT: Moving on to the next compound: Cc1ccc(CC(=O)Nc2ccc(NC(=O)/C=C/c3ccc(-c4ccc(S(C)(=O)=O)cc4)o3)cc2C(=O)c2ccccc2)cc1
OUTPUT: 30

INPUT: Moving on to the next compound: N[C@@H](C(=O)Nc1ccc(NC(=O)/C=C/c2ccc(-c3ccc([N+](=O)[O-])cc3)o2)cc1C(=O)c1ccccc1)c1ccccc1
OUTPUT: 8

###

# Protocol Notes: Inhibition of Saccharomyces cerevisiae FTase
Rule for this label: Condition met means IC50 is less than 100 nM; Condition not met means IC50 is at least 100 nM.

Known results for compounds:
CCN1CCN(C(C(=O)Nc2ccc(NC(=O)/C=C/c3ccc(-c4ccc([N+](=O)[O-])cc4)o3)cc2C(=O)c2ccccc2)c2ccccc2)CC1 (stereo unspecified); Condition not met
CC(C)(C)OC(=O)NC(Cc1ccc(C(F)(F)F)cc1)C(=O)Nc1ccc(NC(=O)/C=C/c2ccc(-c3ccc([N+](=O)[O-])cc3)o2)cc1C(=O)c1ccccc1 (stereo unspecified); Condition not met
NC(C(=O)Nc1ccc(NC(=O)/C=C/c2ccc(-c3ccc([N+](=O)[O-])cc3)o2)cc1C(=O)c1ccccc1)c1ccc(F)cc1 (stereo unspecified); Condition met
CSCC[C@@H](N)C(=O)Nc1ccc(NC(=O)/C=C/c2ccc(-c3ccc([N+](=O)[O-])cc3)o2)cc1C(=O)c1ccccc1; Condition not met
CCCN1CCN(C(C(=O)Nc2ccc(NC(=O)/C=C/c3ccc(-c4ccc([N+](=O)[O-])cc4)o3)cc2C(=O)c2ccccc2)c2ccccc2)CC1 (stereo unspecified); Condition not met

Next:
INPUT: Does the reported IC50 of the following compound sit strictly below 100 nM? NC(Cc1ccc(C(F)(F)F)cc1)C(=O)Nc1ccc(NC(=O)/C=C/c2ccc(-c3ccc([N+](=O)[O-])cc3)o2)cc1C(=O)c1ccccc1 (stereo unspecified)
OUTPUT: Condition met

###

# Protocol Notes: Cytotoxicity against HeLa cells after 72 hrs
# Format: cell-based
# Reported Conditions: human
Catalogue of CC50 at 72 h values

Take a look at these entries with their results.
NC(C(=O)Nc1ccc(NC(=O)/C=C/c2ccc(-c3ccc([N+](=O)[O-])cc3)o2)cc1C(=O)c1ccccc1)c1ccc(F)cc1 (stereo not drawn); > 78 µM
O=C(/C=C/c1ccc(-c2ccc([N+](=O)[O-])cc2)o1)Nc1ccc(NC(=O)Cc2ccc(C(F)(F)F)cc2)c(C(=O)c2ccccc2)c1; > 57 µM
CCCN1CCN(C(C(=O)Nc2ccc(NC(=O)/C=C/c3ccc(-c4ccc([N+](=O)[O-])cc4)o3)cc2C(=O)c2ccccc2)c2ccccc2)CC1 (stereo not drawn); 68 µM
CSCC[C@H](N)C(=O)Nc1ccc(NC(=O)/C=C/c2ccc(-c3ccc([N+](=O)[O-])cc3)o2)cc1C(=O)c1ccccc1; > 81 µM
O=C(/C=C/c1ccc(-c2ccc([N+](=O)[O-])cc2)o1)Nc1ccc(NC(=O)C(c2ccccc2)N2CCN(CCO)CC2)c(C(=O)c2ccccc2)c1 (stereo not drawn); 71 µM
Cc1ccc(CC(=O)Nc2ccc(NC(=O)/C=C/c3ccc(-c4ccc([N+](=O)[O-])cc4)o3)cc2C(=O)c2ccccc2)cc1; > 85 µM
CC(C)C[C@@H](N)C(=O)Nc1ccc(NC(=O)/C=C/c2ccc(-c3ccc([N+](=O)[O-])cc3)o2)cc1C(=O)c1ccccc1; 47.8 µM
N[C@H](Cc1ccccc1)C(=O)Nc1ccc(NC(=O)/C=C/c2ccc(-c3ccc([N+](=O)[O-])cc3)o2)cc1C(=O)c1ccccc1; > 78 µM
N[C@@H](Cc1ccc(Cl)cc1)C(=O)Nc1ccc(NC(=O)/C=C/c2ccc(-c3ccc([N+](=O)[O-])cc3)o2)cc1C(=O)c1ccccc1; > 74.5 µM
N[C@@H](Cc1ccccc1)C(=O)Nc1ccc(NC(=O)/C=C/c2ccc(-c3ccc([N+](=O)[O-])cc3)o2)cc1C(=O)c1ccccc1; > 79 µM

INPUT: Reported CC50 at 72 h for O=C(/C=C/c1ccc(-c2ccc([N+](=O)[O-])cc2)o1)Nc1ccc(NC(=O)C(c2ccccc2)N2CCOCC2)c(C(=O)c2ccccc2)c1 (stereo not drawn) : what is it?
OUTPUT: > 76 µM

INPUT: Moving on to the next compound: N[C@@H](C(=O)Nc1ccc(NC(=O)/C=C/c2ccc(-c3ccc([N+](=O)[O-])cc3)o2)cc1C(=O)c1ccccc1)c1ccccc1
OUTPUT: > 80 µM

INPUT: Moving on to the next compound: O=C(/C=C/c1ccc(-c2ccc([N+](=O)[O-])cc2)o1)Nc1ccc(NC(=O)C(c2ccccc2)N2CCN(C3CCCCC3)CC2)c(C(=O)c2ccccc2)c1 (stereo not drawn)
OUTPUT: 42 µM

###

# Protocol Notes: Cytotoxicity against HeLa cells after 72 hrs
# Assay type: cell-based
# Reported Conditions: human
Experimental Readout: CC50 at 72 h

Take a look at these entries with their results.
CSCC[C@@H](N)C(=O)Nc1ccc(NC(=O)/C=C/c2ccc(-c3ccc([N+](=O)[O-])cc3)o2)cc1C(=O)c1ccccc1; > 81 µM
CN1CCN(C(C(=O)Nc2ccc(NC(=O)/C=C/c3ccc(-c4ccc([N+](=O)[O-])cc4)o3)cc2C(=O)c2ccccc2)c2ccc(Cl)cc2)CC1 (configuration not stated); 38.6 µM
CC(C)C[C@H](N)C(=O)Nc1ccc(NC(=O)/C=C/c2ccc(-c3ccc([N+](=O)[O-])cc3)o2)cc1C(=O)c1ccccc1; > 83 µM
N[C@H](C(=O)Nc1ccc(NC(=O)/C=C/c2ccc(-c3ccc([N+](=O)[O-])cc3)o2)cc1C(=O)c1ccccc1)c1ccccc1; > 80 µM
CC[C@H](C)[C@H](N)C(=O)Nc1ccc(NC(=O)/C=C/c2ccc(-c3ccc([N+](=O)[O-])cc3)o2)cc1C(=O)c1ccccc1; > 83 µM
N[C@H](Cc1ccc(Cl)cc1)C(=O)Nc1ccc(NC(=O)/C=C/c2ccc(-c3ccc([N+](=O)[O-])cc3)o2)cc1C(=O)c1ccccc1; > 74.5 µM

In the following, a different molecule is considered.
INPUT: Reported CC50 at 72 h for CN1CCN(C(C(=O)Nc2ccc(NC(=O)/C=C/c3ccc(-c4ccc([N+](=O)[O-])cc4)o3)cc2C(=O)c2ccccc2)c2ccccc2)CC1 (configuration not stated) : what is it?
OUTPUT: 37 µM

###

# Protocol Notes: Inhibition of Saccharomyces cerevisiae FTase
Experimental Readout: IC50 (nM)
Provide the reading as a plain figure in nM.

INPUT: Reported IC50 for O=C(/C=C/c1ccc(-c2ccc([N+](=O)[O-])cc2)o1)Nc1ccc(NC(=O)C(c2ccccc2)N2CCN(c3ccccc3)CC2)c(C(=O)c2ccccc2)c1 (stereo unspecified) : what is it?
OUTPUT: 300

INPUT: Moving on to the next compound: N[C@H](Cc1ccccc1)C(=O)Nc1ccc(NC(=O)/C=C/c2ccc(-c3ccc([N+](=O)[O-])cc3)o2)cc1C(=O)c1ccccc1
OUTPUT: 116

INPUT: Moving on to the next compound: O=C(/C=C/c1ccc(-c2ccc([N+](=O)[O-])cc2)o1)Nc1ccc(NC(=O)C(c2ccccc2)N2CCN(Cc3ccccc3)CC2)c(C(=O)c2ccccc2)c1 (stereo unspecified)
OUTPUT: 660

###

# Protocol Notes: Inhibition of Saccharomyces cerevisiae FTase
Catalogue of pIC50 values
Please express pIC50 as -log10 of the molar concentration.

N[C@@H](Cc1ccccc1)C(=O)Nc1ccc(NC(=O)/C=C/c2ccc(-c3ccc([N+](=O)[O-])cc3)o2)cc1C(=O)c1ccccc1; 8.52
CCc1ccc(-c2ccc(/C=C/C(=O)Nc3ccc(NC(=O)Cc4ccc(C)cc4)c(C(=O)c4ccccc4)c3)o2)cc1; 7.05

INPUT: Reported pIC50 for N[C@@H](Cc1c[nH]c2ccccc12)C(=O)Nc1ccc(NC(=O)/C=C/c2ccc(-c3ccc([N+](=O)[O-])cc3)o2)cc1C(=O)c1ccccc1 : what is it?
OUTPUT: 6.24

INPUT: Moving on to the next molecule: N[C@H](Cc1ccc(Cl)cc1)C(=O)Nc1ccc(NC(=O)/C=C/c2ccc(-c3ccc([N+](=O)[O-])cc3)o2)cc1C(=O)c1ccccc1
OUTPUT: 7.15

INPUT: Moving on to the next molecule: N[C@@H](Cc1ccc(Cl)cc1)C(=O)Nc1ccc(NC(=O)/C=C/c2ccc(-c3ccc([N+](=O)[O-])cc3)o2)cc1C(=O)c1ccccc1
OUTPUT: 7.22
